# targetOrTestSystem: hMC3-R (Homo sapiens)
# Construct: expressed in transfected cells; host or cells: CHO-K1
# Sequence (P41968 whole entry): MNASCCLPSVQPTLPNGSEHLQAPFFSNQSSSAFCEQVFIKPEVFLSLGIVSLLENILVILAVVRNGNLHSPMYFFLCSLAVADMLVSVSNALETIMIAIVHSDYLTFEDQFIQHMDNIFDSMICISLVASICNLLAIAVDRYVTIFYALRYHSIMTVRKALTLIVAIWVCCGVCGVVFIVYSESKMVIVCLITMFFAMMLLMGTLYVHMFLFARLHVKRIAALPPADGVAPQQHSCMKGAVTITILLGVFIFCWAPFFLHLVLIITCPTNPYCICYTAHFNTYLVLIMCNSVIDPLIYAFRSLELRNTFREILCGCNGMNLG
# procedureText: Radioligand binding assay, [125I]-NDP-α-MSH competition, CHO-K1 membranes
# assayConditions: Table 5; read-out: Ki hMC3-R
Bridge positions count the residues as written; N and C are the ends. Square brackets hold non-standard residues; d marks the D form. Peptide text beside a SMILES is read from it. Bip = N[C@@H](Cc1ccc(-c2ccccc2)cc1)C(=O)O; d2Nal = N[C@H](Cc1ccc2ccccc2c1)C(=O)O; Nle = CCCC[C@H](N)C(=O)O; GABA = NCCCC(=O)O; βAla = NCCC(=O)O
experimentalReadout: Ki (nM)
Field format: number, assumed nM, no unit text.

Reference set (3 entries):
* CCCC[C@H](NC(C)=O)C(=O)N[C@H]1CSSC[C@@H](C(N)=O)NC(=O)[C@H](Cc2c[nH]c3ccccc23)NC(=O)[C@H](CCCNC(=N)N)NC(=O)[C@@H](Cc2ccccc2)NC(=O)[C@H](Cc2c[nH]cn2)NC(=O)[C@@H](C(C)C)NC1=O | 104
* CCCC[C@H](NC(C)=O)C(=O)N[C@H]1CSSC[C@@H](C(N)=O)NC(=O)[C@@H](C)NC(=O)[C@H](Cc2c[nH]c3ccccc23)NC(=O)[C@H](CCCNC(=N)N)NC(=O)[C@@H](Cc2ccccc2)NC(=O)[C@H](Cc2c[nH]cn2)NC(=O)[C@@H](C)NC1=O (Ac-[Nle]C[dA]H[dF]RW[dA]C-NH2; disulfide 2-9) | 876
* N=C(N)NCCC[C@@H]1NC(=O)[C@@H](Cc2ccccc2)NC(=O)[C@H](Cc2c[nH]cn2)NC(=O)[C@@H](NC(=O)[C@@H](N)Cc2ccccc2)CSSC[C@@H](C(N)=O)NC(=O)CCCNC(=O)[C@H](Cc2c[nH]c3ccccc23)NC1=O (H-FCH[dF]RW[GABA]C-NH2; disulfide 2-8) | 15.2

query: Read the entry C[C@@H](O)[C@H](NC(=O)[C@H]1CSSC[C@H](NC(=O)[C@H](N)Cc2ccccc2)C(=O)N[C@@H](Cc2c[nH]cn2)C(=O)N[C@H](Cc2ccccc2)C(=O)N[C@@H](CCCNC(=N)N)C(=O)N[C@@H](Cc2ccc(-c3ccccc3)cc2)C(=O)NCCC(=O)N1)C(N)=O (H-[dF]CH[dF]R[Bip][βAla][dC]T-NH2; disulfide 2-8) and write its reported Ki.
result: 3370

query: Read the entry CCCC[C@H](NC(C)=O)C(=O)N[C@H]1CSSC[C@@H](C(N)=O)NC(=O)CCCNC(=O)[C@H](Cc2c[nH]c3ccccc23)NC(=O)[C@H](CCCNC(=N)N)NC(=O)[C@@H](Cc2ccc3ccccc3c2)NC(=O)[C@H](Cc2c[nH]cn2)NC1=O (Ac-[Nle]CH[d2Nal]RW[GABA]C-NH2; disulfide 2-8) and write its reported Ki.
result: 1.86

----------
# targetOrTestSystem: hMC5-R (Homo sapiens, UniProt P33032)
# Construct: expressed in transfected cells; host or cells: CHO-K1
# Sequence (P33032 whole entry): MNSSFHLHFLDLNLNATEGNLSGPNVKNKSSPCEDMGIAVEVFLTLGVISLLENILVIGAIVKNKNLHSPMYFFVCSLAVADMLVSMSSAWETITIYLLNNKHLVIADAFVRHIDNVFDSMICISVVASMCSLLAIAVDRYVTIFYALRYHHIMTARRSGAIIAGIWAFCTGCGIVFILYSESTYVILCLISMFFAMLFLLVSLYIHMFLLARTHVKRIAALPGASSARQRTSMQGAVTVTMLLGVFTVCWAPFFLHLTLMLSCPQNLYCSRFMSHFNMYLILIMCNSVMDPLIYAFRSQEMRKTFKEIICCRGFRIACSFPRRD
# procedureText: cyclic AMP bioassay (ECL) in CHO-K1 cells
# Type: cell-based
# assayConditions: Table 9A/9B; read-out: EC50 hMC5-R
Bridge positions count the residues as written; N and C are the ends. Square brackets hold non-standard residues; d marks the D form. Peptide text beside a SMILES is read from it. Pen = CC(C)(S)[C@H](N)C(=O)O; Nle = CCCC[C@H](N)C(=O)O; Ava = NCCCCC(=O)O; GABA = NCCCC(=O)O
experimentalReadout: EC50 (nM)

Reference set (2 entries):
• CCCC[C@H](NC(C)=O)C(=O)N[C@H]1CSSC[C@@H](C(N)=O)NC(=O)CCCCNC(=O)[C@H](Cc2c[nH]c3ccccc23)NC(=O)[C@H](CCCNC(=N)N)NC(=O)[C@@H](Cc2ccccc2)NC(=O)[C@H](Cc2c[nH]cn2)NC1=O (Ac-[Nle]CH[dF]RW[Ava]C-NH2; disulfide 2-8) = 1.73
• CC(=O)N[C@@H](CCCNC(=N)N)C(=O)N[C@H]1CSSC(C)(C)[C@@H](C(N)=O)NC(=O)CCCNC(=O)[C@H](Cc2c[nH]c3ccccc23)NC(=O)[C@H](CCCNC(=N)N)NC(=O)[C@@H](Cc2ccccc2)NC(=O)[C@H](Cc2c[nH]cn2)NC1=O (Ac-RCH[dF]RW[GABA][Pen]-NH2; disulfide 2-8 (inferred)) = 23.2

1. CCCC[C@H](NC(C)=O)C(=O)N[C@H]1CSSC[C@@H](C(N)=O)NC(=O)[C@H](Cc2c[nH]c3ccccc23)NC(=O)[C@H](CCCNC(=N)N)NC(=O)[C@@H](Cc2ccccc2)NC(=O)[C@H](Cc2c[nH]cn2)NC(=O)[C@@H](CC2CCCCC2)NC1=O
2. CC(=O)N[C@H](CCCNC(=N)N)C(=O)N[C@H]1CC(=O)NCCCC[C@@H](C(N)=O)NC(=O)[C@H](C)NC(=O)[C@H](Cc2c[nH]c3ccccc23)NC(=O)[C@H](CCCNC(=N)N)NC(=O)[C@@H](Cc2ccccc2)NC(=O)[C@H](Cc2c[nH]cn2)NC1=O
3. CC(=O)N[C@@H](CCCNC(=N)N)C(=O)N[C@H]1CC(=O)NCCCC[C@@H](C(N)=O)NC(=O)[C@H](C)NC(=O)[C@H](Cc2c[nH]c3ccccc23)NC(=O)[C@H](CCCNC(=N)N)NC(=O)[C@@H](Cc2ccccc2)NC(=O)[C@H](Cc2c[nH]cn2)NC1=O
query: List these items ordered by EC50, big to small. Enter labels, ranked according to the request.
result: 3, 2, 1
